B1: tRNA (parent)
chain: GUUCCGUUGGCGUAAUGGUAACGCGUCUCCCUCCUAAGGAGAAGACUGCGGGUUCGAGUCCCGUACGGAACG

Variants of: B1
Procedure Summary: yeast fitness, log relative to wild type (ln ratio); higher = fitter; tRNA-Arg(CCU), competitive growth, 37 C, 1 M NaCl
Readout: yeast fitness (ln)

GUUCCAUUGGCGUAAUGGUAACGCGUCUCCCUCCUAAGGAGACGACUGCGGGUUCGAGUCCCGUACGGAGCG [G6A A43C A70G] ... -0.223
AGUCCGUUGGCGUAAUGGUAACGCGUCUCCCUCCUAAGGAGAAGAUUGCGGGUUCGAGUCCCGUAUGGAAUG [G1A U2G C46U C66U C71U] ... -0.117
GGUCCUUUGGCGUAAUGGUAACGCGUUUCCCUCCUAAGGAGACGAUUGCGGGUUCGAGUCCCGUAUGGGAUG [U2G G6U C27U A43C C46U C66U A69G C71U] ... -0.375

Just so you know, measured yeast fitness (ln) for AGUCCGUUGGCGUAAUGGUAACGCGUUUCCCUCCUAAGGAGACGAUUGCGGGUUCGAGUCCCGUAUGGGGCG [G1A U2G C27U A43C C46U C66U A69G A70G] came out at -0.282

Just so you know, measured yeast fitness (ln) for GUUCCAUUGGCGUAAUGGUAACGCGUCUCCCUCCUAAGGAGACGAUUGCGGGUUCGAGUCCCGUAAGGGGUG [G6A A43C C46U C66A A69G A70G C71U] came out at -0.207

Just so you know, measured yeast fitness (ln) for GGUCCAUUGGCGUAAUGGUAACGCGUCUCCCUCCUAAGGAGAAGACUGCGGGUUCGAGUCCCGUACGGGUUG [U2G G6A A69G A70U C71U] came out at -0.264

Just so you know, measured yeast fitness (ln) for GCUCCGUUGGCGUAAUGGUAACGCGUUUCCCUCCUAAGGAGACGAUUGCGGGUUCGAGUCCCGUAAGGGGUG [U2C C27U A43C C46U C66A A69G A70G C71U] came out at -0.15

Just so you know, measured yeast fitness (ln) for ACUCCGUUGGCGUAAUGGUAACGCGUCUCCCUCCUAAGGAGAAGACUGCGGGUUCGAGUCCCGUACGGAACG [G1A U2C] came out at -0.00128

Just so you know, measured yeast fitness (ln) for AUUCCUUUGGCGUAAUGGUAACGCGUCUCCCUCCUAAGGAGACGAUUGCGGGUUCGAGUCCCGUAAGGAACG [G1A G6U A43C C46U C66A] came out at -0.278

Just so you know, measured yeast fitness (ln) for GUUCCAUUGGCGUAAUGGUAACGCGUUUCCCUCCUAAGGAGACGAUUGCGGGUUCGAGUCCCGUAAGGAAUG [G6A C27U A43C C46U C66A C71U] came out at -0.328

Just so you know, measured yeast fitness (ln) for ACUCCAUUGGCGUAAUGGUAACGCGUUUCCCUCCUAAGGAGACGAUUGCGGGUUCGAGUCCCGUAUGGAUCG [G1A U2C G6A C27U A43C C46U C66U A70U] came out at -0.0654

Just so you know, measured yeast fitness (ln) for AUUCCAUUGGCGUAAUGGUAACGCGUUUCCCUCCUAAGGAGAAGACUGCGGGUUCGAGUCCCGUAAGGAGUG [G1A G6A C27U C66A A70G C71U] came out at -0.473

Just so you know, measured yeast fitness (ln) for AGUCCUUUGGCGUAAUGGUAACGCGUUUCCCUCCUAAGGAGAAGACUGCGGGUUCGAGUCCCGUAUGGGUCG [G1A U2G G6U C27U C66U A69G A70U] came out at -0.307

Just so you know, measured yeast fitness (ln) for GCUCCAUUGGCGUAAUGGUAACGCGUCUCCCUCCUAAGGAGAAGAUUGCGGGUUCGAGUCCCGUAUGGAACG [U2C G6A C46U C66U] came out at 0.00338

Just so you know, measured yeast fitness (ln) for GUUCCAUUGGCGUAAUGGUAACGCGUCUCCCUCCUAAGGAGACGAUUGCGGGUUCGAGUCCCGUAUGGAGCG [G6A A43C C46U C66U A70G] came out at -0.0403

Just so you know, measured yeast fitness (ln) for AGUCCAUUGGCGUAAUGGUAACGCGUUUCCCUCCUAAGGAGAAGACUGCGGGUUCGAGUCCCGUAUGGAGUG [G1A U2G G6A C27U C66U A70G C71U] came out at -0.309

Just so you know, measured yeast fitness (ln) for GGUCCAUUGGCGUAAUGGUAACGCGUCUCCCUCCUAAGGAGACGAUUGCGGGUUCGAGUCCCGUAAGGGUCG [U2G G6A A43C C46U C66A A69G A70U] came out at -0.0569

Just so you know, measured yeast fitness (ln) for GUUCCUUUGGCGUAAUGGUAACGCGUUUCCCUCCUAAGGAGACGAUUGCGGGUUCGAGUCCCGUAAGGGGUG [G6U C27U A43C C46U C66A A69G A70G C71U] came out at -0.312

Sourced from the RNAGym collection of RNA variant scans (doi:10.1038/s41586-018-0170-7)
